Assayed system: Interleukin-1 receptor-associated kinase 4 (Homo sapiens, UniProt Q9NWZ3)
Sequence (Q9NWZ3 whole entry): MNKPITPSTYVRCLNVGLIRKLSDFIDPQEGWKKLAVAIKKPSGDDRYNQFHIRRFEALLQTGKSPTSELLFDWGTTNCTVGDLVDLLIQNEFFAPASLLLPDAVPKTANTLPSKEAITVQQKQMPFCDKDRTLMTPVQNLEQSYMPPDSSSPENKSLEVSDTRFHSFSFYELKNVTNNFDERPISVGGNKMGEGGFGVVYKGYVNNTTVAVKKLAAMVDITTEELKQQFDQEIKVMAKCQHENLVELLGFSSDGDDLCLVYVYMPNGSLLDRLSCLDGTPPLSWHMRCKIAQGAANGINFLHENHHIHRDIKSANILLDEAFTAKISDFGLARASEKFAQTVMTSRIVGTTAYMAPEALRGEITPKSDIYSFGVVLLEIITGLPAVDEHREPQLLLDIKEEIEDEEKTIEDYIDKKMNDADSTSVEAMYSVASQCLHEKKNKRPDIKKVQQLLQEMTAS
Assay info: Inhibition of IRAK4 in human whole blood assessed as inhibition of LTA-induced IL-6 production preincubated for 30 mins followed by LTA-stimulation and measured after 5 hrs by ELISA
Format: tissue-based
pIC50: −log10 of the molar value.
Kindly return class 1 if reported pIC50 is no lower than 6; return class 0 if it is lower.

Kindly determine if pIC50 recorded for CC(C)Nc1cc(Nc2ccc3nonc3c2)ncc1C(=O)NC[C@@H](F)C(C)(C)O is above or exactly 6.
class 1

Check the entry Cc1nc2ccc(Nc3cc(NC(C)C)c(C(=O)NC[C@@H](F)C(C)(C)O)cn3)cc2s1 : does pIC50 equal or exceed 6?
class 0

# bool: pIC50 of CC(C)Nc1cc(Nc2ccn3nccc3n2)ncc1C(=O)NC[C@@H](F)C(C)(C)O >= 6
class 1

Could you verify whether the entry CC(C)Nc1cc(Nc2ccc3ncsc3c2)ncc1C(=O)NCC(F)(F)C(C)(C)O shows pIC50 of no less than 6?
class 0
